All figures here come from patent US10562857B2.

- target entity: Cav3.2 channel (Homo sapiens, UniProt O95180)
- Construct: expressed in transfected cells; host or cells: HEK-293, tetracycline inducible expression system (Invitrogen)
- Sequence (O95180 whole entry): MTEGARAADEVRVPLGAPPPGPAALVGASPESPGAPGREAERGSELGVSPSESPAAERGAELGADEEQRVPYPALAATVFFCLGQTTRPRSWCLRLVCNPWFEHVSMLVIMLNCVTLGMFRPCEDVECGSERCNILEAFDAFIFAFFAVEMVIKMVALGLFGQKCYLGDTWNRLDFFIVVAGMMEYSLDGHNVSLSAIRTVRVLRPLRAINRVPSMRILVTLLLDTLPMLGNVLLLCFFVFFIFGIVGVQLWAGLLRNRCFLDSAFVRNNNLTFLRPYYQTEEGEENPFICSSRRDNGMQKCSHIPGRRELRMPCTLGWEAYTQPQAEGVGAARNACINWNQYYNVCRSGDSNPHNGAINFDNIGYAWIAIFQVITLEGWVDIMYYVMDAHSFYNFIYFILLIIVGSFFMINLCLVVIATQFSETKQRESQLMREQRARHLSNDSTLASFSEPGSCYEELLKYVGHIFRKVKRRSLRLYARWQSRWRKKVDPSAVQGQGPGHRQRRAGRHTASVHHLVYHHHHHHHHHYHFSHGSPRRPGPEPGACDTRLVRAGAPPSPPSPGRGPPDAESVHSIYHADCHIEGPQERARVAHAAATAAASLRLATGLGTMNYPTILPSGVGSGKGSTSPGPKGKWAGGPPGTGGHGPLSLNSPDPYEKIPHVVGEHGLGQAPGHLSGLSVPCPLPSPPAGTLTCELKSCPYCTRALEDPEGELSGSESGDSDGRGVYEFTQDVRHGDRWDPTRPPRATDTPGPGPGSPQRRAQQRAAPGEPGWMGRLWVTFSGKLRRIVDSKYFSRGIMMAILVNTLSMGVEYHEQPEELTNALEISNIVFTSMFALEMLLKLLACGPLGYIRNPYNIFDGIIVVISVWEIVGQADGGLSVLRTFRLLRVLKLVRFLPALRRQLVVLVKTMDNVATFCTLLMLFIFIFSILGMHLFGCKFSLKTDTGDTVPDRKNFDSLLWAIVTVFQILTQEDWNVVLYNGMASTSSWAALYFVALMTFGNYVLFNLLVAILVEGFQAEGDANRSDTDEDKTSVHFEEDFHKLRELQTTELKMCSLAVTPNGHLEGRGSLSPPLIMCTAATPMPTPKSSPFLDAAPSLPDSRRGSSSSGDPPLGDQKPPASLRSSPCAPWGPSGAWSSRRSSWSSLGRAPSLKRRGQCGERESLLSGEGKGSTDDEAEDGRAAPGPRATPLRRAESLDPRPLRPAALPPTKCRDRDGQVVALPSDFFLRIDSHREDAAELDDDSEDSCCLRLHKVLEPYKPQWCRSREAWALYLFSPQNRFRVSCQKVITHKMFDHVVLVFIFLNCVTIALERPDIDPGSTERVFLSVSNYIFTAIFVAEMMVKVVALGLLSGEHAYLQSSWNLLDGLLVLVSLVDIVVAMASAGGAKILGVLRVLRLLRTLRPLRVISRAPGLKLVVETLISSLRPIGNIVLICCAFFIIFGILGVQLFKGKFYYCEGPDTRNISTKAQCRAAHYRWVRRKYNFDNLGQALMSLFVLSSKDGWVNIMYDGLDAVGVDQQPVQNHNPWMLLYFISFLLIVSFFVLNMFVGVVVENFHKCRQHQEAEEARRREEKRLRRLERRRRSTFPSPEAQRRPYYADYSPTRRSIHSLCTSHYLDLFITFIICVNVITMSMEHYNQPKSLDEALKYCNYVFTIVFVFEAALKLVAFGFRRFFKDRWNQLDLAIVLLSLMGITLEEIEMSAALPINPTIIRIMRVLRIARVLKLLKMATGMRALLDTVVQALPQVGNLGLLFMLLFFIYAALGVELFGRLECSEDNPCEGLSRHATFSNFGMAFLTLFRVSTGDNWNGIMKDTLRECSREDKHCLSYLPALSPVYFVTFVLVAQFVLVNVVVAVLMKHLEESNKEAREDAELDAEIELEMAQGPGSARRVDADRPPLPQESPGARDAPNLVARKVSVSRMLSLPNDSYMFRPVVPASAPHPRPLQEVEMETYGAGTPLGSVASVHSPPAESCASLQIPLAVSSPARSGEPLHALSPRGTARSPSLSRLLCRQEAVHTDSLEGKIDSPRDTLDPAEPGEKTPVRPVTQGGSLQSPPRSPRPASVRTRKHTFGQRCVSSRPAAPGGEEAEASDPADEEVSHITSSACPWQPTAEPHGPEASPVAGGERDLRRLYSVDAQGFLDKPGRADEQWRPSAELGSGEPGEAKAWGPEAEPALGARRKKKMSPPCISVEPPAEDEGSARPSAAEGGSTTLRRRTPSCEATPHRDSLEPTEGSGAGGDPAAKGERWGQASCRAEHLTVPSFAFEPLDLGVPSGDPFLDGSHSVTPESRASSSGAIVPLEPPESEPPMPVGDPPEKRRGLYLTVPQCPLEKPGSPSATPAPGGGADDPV
- assay summary: Whole-cell patch clamp of T-type Cav3.2 channel expressed in HEK293 cells
- Format: cell-based
- condition description: Table 3A; read-out: Cav3.2 IC50
reported property: pIC50
Answers are plain numbers, as −log10 of the molar value.

Here are 2 compounds together with their reported answers.
* CC(C)(C)NC(=O)CN1CCC2(CC1)CC2NC(=O)c1cc(F)cc(Cl)c1 (single isomer, unassigned) | 7.05
* CC(C)(C)NC(=O)CN1CCC(CNC(=O)c2cc(F)cc(Cl)c2)CC1 [Z944, reference compound] | 6.70

Lab note: next compound to report on.
Ask | API: value(readout=pIC50, system=Cav3.2 channel (Homo sapiens, UniProt O95180)) for record CC(C)(C)CCN1C[C@@H]2[C@@H](CNC(=O)c3cc(Cl)cc(Cl)c3)[C@@H]2C1 [ML218, reference compound]
Reply | 6.51

----------
- target entity: Cav3.2 channel (Homo sapiens, UniProt O95180)
- Construct: expressed in transfected cells; host or cells: HEK-293, tetracycline inducible expression system (Invitrogen)
- assay summary: Whole-cell patch clamp of T-type Cav3.2 channel expressed in HEK293 cells
- Type: cell-based
- condition description: read-out: Cav3.2 IC50
reported property: IC50

Ask | Entry under review: CC(C)(C)NC(=O)CN1CCC2(CC1)C[C@H]2C(=O)Nc1cc(C(F)(F)F)cc(C(F)(F)F)c1 (single isomer, unassigned) [Example 132] . Reported IC50?
Reply | 140 nM

----------
- target entity: Cav3.1 (Homo sapiens, UniProt O43497)
- Sequence (O43497 whole entry): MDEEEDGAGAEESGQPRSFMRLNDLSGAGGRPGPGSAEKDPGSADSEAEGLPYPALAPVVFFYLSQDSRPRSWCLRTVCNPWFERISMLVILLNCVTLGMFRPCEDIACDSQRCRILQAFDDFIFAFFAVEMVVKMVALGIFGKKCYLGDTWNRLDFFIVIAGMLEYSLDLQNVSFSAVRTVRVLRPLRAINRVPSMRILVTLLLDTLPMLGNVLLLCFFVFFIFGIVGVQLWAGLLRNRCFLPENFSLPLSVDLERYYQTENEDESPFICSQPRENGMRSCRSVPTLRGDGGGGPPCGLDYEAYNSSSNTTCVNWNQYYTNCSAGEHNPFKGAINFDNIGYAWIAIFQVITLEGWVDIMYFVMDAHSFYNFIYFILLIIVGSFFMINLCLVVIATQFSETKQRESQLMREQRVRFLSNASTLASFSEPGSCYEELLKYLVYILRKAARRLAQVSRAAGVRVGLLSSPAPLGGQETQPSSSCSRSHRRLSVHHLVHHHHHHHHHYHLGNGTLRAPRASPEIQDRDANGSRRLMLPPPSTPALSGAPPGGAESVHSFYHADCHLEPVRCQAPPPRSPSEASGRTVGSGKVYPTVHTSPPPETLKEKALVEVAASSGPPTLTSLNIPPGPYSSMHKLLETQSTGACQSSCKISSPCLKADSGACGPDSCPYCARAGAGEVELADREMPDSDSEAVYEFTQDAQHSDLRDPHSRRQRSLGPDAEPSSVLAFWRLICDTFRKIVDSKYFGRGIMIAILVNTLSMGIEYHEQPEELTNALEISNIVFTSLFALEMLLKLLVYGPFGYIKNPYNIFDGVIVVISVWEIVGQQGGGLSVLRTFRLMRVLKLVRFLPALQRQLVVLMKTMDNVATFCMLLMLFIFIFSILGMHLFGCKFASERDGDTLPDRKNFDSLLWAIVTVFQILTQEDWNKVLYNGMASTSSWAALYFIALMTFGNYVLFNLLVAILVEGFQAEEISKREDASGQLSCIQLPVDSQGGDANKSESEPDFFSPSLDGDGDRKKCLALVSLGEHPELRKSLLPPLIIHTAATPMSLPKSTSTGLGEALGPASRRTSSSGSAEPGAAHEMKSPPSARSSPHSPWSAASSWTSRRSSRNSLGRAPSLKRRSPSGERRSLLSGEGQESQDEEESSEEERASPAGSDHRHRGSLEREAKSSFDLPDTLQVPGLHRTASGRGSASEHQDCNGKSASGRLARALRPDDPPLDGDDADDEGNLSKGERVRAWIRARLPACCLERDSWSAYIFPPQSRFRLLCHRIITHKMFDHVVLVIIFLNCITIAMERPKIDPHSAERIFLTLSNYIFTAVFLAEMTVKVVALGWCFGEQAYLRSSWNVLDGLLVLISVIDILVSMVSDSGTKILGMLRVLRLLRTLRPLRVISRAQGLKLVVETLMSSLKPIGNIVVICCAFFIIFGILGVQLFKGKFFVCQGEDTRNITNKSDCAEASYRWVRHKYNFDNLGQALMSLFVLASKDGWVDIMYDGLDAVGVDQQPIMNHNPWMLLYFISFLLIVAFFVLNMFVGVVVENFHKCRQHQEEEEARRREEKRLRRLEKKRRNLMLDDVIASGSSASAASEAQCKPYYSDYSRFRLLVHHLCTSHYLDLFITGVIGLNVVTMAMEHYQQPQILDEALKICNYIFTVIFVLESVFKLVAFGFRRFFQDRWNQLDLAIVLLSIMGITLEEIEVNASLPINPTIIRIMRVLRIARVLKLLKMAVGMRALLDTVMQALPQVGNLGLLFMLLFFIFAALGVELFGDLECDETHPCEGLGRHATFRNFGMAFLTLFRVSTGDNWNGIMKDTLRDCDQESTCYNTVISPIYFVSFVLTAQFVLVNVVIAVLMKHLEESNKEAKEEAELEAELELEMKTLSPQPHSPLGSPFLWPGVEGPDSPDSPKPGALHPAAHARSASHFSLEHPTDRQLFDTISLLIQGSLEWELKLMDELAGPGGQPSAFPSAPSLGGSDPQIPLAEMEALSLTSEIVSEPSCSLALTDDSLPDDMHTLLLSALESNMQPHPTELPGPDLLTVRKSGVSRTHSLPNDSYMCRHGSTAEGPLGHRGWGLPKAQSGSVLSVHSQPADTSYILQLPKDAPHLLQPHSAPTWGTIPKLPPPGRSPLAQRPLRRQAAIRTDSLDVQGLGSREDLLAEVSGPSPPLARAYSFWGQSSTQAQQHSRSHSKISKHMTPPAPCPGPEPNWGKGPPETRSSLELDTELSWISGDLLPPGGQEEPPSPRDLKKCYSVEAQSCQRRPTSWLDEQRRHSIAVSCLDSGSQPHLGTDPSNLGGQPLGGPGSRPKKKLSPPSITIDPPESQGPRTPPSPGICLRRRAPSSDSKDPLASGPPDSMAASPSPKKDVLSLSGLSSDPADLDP
- assay summary: Whole-cell patch clamp of T-type Cav3.1 channel expressed in HEK293 cells
- condition description: Table 2
reported property: log10 of IC50 (log10 of the value in nM)
Please note: log10 values; quantity IC50; unit nM.

- CC(C)(C)NC(=O)CN1CCC2(CC1)C[C@H]2NC(=O)c1cc(C(F)(F)F)cc(C(F)(F)F)c1 (single isomer, unassigned): 1.60
- CC(C)(C)NC(=O)CN1CCC2(CC1)C[C@H]2NC(=O)c1cc(F)cc(Cl)c1 (single isomer, unassigned): 3.02
- CC(C)(C)NC(=O)CN1CCC2(CC1)CC2C(=O)Nc1cc(F)cc(C(F)(F)F)c1 (centres unmarked): 2.53
- CC(C)(C)NC(=O)CN1CCC2(CC1)C[C@H]2NC(=O)c1cc(Cl)cc(Cl)c1 (single isomer, unassigned): 2.11

State recorded log10 of IC50 for all listed compounds.
1. CC(C)(C)NC(=O)CN1CCC2(CC1)CC2NC(=O)c1cc(F)cc(Cl)c1 (single isomer, unassigned) [Example 128]
2. CC(C)(C)CCN1CCC2(CC1)CC2NC(=O)c1cc(F)cc(Cl)c1 (centres unmarked)
3. CC(C)(C)NC(=O)CN1CCC2(CC1)C[C@H]2NC(=O)c1cc(F)cc(C(F)(F)F)c1 (single isomer, unassigned)
4. CC(C)(C)NC(=O)CN1CCC2(CC1)CC2NC(=O)c1cc(F)cc(Cl)c1 (centres unmarked) [Example 17]

Reply |
[1.78, 2.45, 2.04, 2.46]

----------
Answer each item with its documented half-life.
- assay summary: Rat pharmacokinetics
- Type: in vivo
- condition description: plasma, po, read-out: Plasma t1/2 (h) po (converted)
Give bare numbers, in h.

* CC(C)(C)NC(=O)CN1CCC2(CC1)CC2NC(=O)c1cc(F)cc(Cl)c1 (single isomer, unassigned) | 3.66

Now let's try a different one.
Ask | Item under review: CC(C)(C)NC(=O)CN1CCC(CNC(=O)c2cc(F)cc(Cl)c2)CC1 [Z944, reference compound] . Reported half-life?
Reply | 2.26

----------
- assay summary: Plasma protein binding, rat
- Type: in vitro ADME
reported property: recovery (%)
Give bare numbers, in %.

Past entries and their recorded results:
- CC(C)(C)NC(=O)CN1CCC2(CC1)CC2NC(=O)c1cc(F)cc(Cl)c1 (single isomer, unassigned): 90.4
- CC(C)(C)NC(=O)CN1CCC(CNC(=O)c2cc(F)cc(Cl)c2)CC1 [Z944, reference compound]: 91.1

Continue with the compound presented below.
Ask | Reported recovery, compound CC(C)(C)CCN1C[C@@H]2[C@@H](CNC(=O)c3cc(Cl)cc(Cl)c3)[C@@H]2C1 [ML218, reference compound] : ____
Reply | 94.9

----------
Exercise: state measured IC50 for each of the compounds provided.
- target entity: Cav3.2 channel (Homo sapiens)
- Construct: expressed in transfected cells; host or cells: HEK-293, tetracycline inducible expression system (Invitrogen)
- assay summary: Whole-cell patch clamp of T-type Cav3.2 channel expressed in HEK293 cells
- Type: cell-based
- condition description: Table 1; tested at at least 4 concentrations; read-out: IC50
One number for each entry, in nM.

Take a look at these entries with their results.
• O=C(N[C@@H]1CC12CCN(CC(O)c1ccc(C(F)(F)F)cc1)CC2)c1cc(F)cc(Cl)c1 (single isomer, unassigned) = 70
• CC(C)(C)CCN1CCC2(CC1)CC2NC(=O)c1cc(Br)cc(Br)c1 (stereo not shown) = 60
• CC(C)(C)CCN1CCC2(CC1)CC2NC(=O)c1cc(F)cc(C(F)(F)F)c1 (stereo not shown) = 20
• CC(C)(C)CCN1CCC2(CCC2NC(=O)c2cc(Cl)cc(Cl)c2)CC1 (stereo not shown) = 280

Could you report IC50 for every entry in the following list?
1. CC(C)(C)C(O)CN1CCC2(CC1)CC2NC(=O)c1cc(F)cc(Cl)c1 (single isomer, unassigned)
2. CC(C)(C)NC(=O)CN1CCC2(CC1)C[C@@H]2NC(=O)[C@]12C[C@@]3(F)C[C@](F)(C[C@](F)(C3)C1)C2 (single isomer, unassigned)
3. O=C(CN1CCC2(CC1)CC2NC(=O)c1cc(F)cc(Cl)c1)c1ccc(C(F)(F)F)cc1 (single isomer, unassigned)

Reply |
1: 210; 2: 620; 3: 260

----------
- assay summary: Metabolic stability in rat liver microsomes
- Type: in vitro ADME
- condition description: read-out: Rat Liver Microsomes t1/2
I'd appreciate it if you could supply half-life values for the items below.
Numbers only, in h.

- CC(C)(C)CCN1C[C@@H]2[C@@H](CNC(=O)c3cc(Cl)cc(Cl)c3)[C@@H]2C1 [ML218, reference compound]: 2.1

Next:
Ask | Could you share which half-life value was measured for CC(C)(C)NC(=O)CN1CCC(CNC(=O)c2cc(F)cc(Cl)c2)CC1 [Z944, reference compound] ?
Reply | 0.875

----------
- target entity: Cav3.3 (Homo sapiens, UniProt Q9P0X4)
- assay summary: Whole-cell patch clamp of T-type Cav3.3 channel expressed in HEK293 cells
- condition description: Table 2
reported property: pIC50
One number for each entry, as −log10 of the molar value.

* CC(C)(C)CCN1CCC2(CC1)CC2NC(=O)c1cc(F)cc(Cl)c1 (centres unmarked) [Example 28] | 6.68

Give one value of pIC50 per listed compound.
1. CC(C)(C)CCN1CCC2(CC1)C[C@H]2NC(=O)c1cc(C(F)(F)F)cc(C(F)(F)F)c1 (single isomer, unassigned) [Example 146]
2. CC(C)(C)NC(=O)CN1CCC2(CC1)CC2NC(=O)c1cc(F)cc(Cl)c1 (single isomer, unassigned) [Example 128]
3. CC(C)(C)NC(=O)CN1CCC2(CC1)C[C@H]2NC(=O)c1cc(C(F)(F)F)cc(C(F)(F)F)c1 (single isomer, unassigned) [Example 144]
4. CC(C)(C)NC(=O)CN1CCC2(CC1)C[C@H]2NC(=O)c1cc(Cl)cc(Cl)c1 (single isomer, unassigned) [Example 57]
5. CC(C)(C)NC(=O)CN1CCC2(CC1)CC2C(=O)Nc1cc(F)cc(C(F)(F)F)c1 (centres unmarked) [Example 141]
6. CC(C)(C)NC(=O)CN1CCC2(CC1)C[C@H]2NC(=O)c1cc(F)cc(C(F)(F)F)c1 (single isomer, unassigned) [Example 130]
7. CC(C)(C)NC(=O)CN1CCC2(CC1)C[C@H]2C(=O)Nc1cc(C(F)(F)F)cc(C(F)(F)F)c1 (single isomer, unassigned) [Example 132]
8. CC(C)(C)CCN1CCC2(CC1)C[C@H]2NC(=O)c1cc(C(F)(F)F)ccc1Cl (single isomer, unassigned) [Example 147]

Reply |
[6.96, 6.12, 6.60, 7.01, 6.64, 6.55, 5.12, 5.80]

Need pIC50 for each of these compounds.
1. CC(C)(C)CCN1C[C@@H]2[C@@H](CNC(=O)c3cc(Cl)cc(Cl)c3)[C@@H]2C1 [ML218, reference compound]
2. CC(C)(C)NC(=O)CN1CCC(CNC(=O)c2cc(F)cc(Cl)c2)CC1 [Z944, reference compound]
3. CC(C)(C)NC(=O)CN1CCC2(CC1)CC2NC(=O)c1cc(F)cc(Cl)c1 (centres unmarked) [Example 17]
4. CC(C)(C)NC(=O)CN1CCC2(CC1)C[C@H]2NC(=O)c1cc(F)cc(Cl)c1 (single isomer, unassigned) [Example 129]
5. CC(C)(C)NC(=O)CN1CCC2(CC1)C[C@H]2NC(=O)C12CC3CC(CC(C3)C1)C2 (single isomer, unassigned) [Example 145]

Reply |
6.57
6.24
6.54
5.79
6.51
